# STUDY_SYSTEM: T1, 4-1BB human (human 4-1BB ECD-TEV-IgG1 hinge-CH2-CH3-10x His) (human)
# T1 construct: 4-1BB residues 24-186 fused to TEV site, IgG1 Fc and His tag; the entry is the whole fusion; also called soluble human 4-1BB-Fc
# T1 sequence (chain, as listed by the source limits assumed): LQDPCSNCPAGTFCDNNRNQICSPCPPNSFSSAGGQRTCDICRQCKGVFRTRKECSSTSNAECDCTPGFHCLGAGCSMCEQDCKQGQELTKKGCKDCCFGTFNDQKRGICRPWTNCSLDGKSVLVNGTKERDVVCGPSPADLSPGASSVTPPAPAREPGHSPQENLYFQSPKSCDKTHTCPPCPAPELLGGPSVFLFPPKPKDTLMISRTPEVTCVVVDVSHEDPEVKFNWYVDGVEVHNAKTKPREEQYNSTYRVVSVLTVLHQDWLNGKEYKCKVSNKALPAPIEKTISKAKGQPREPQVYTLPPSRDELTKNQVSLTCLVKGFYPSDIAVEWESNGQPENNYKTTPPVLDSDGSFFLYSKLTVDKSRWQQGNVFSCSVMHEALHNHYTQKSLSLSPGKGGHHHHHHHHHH
# PROTOCOL_NOTES: ELISA, coated 4-1BB-Fc

{"BINDER": "v20025 (antibody, human IgG1, kappa, L234A L235A, V domains shown, Mouse-human chimera; also called 2E8) VH: QVQLKQSGPGLVQPSQSLSITCTVSGFSLTSYGVHWVRQSPGKGLEWLGVIWSGGSTDYNAAFISRLSISKDNSKSQVFFKMNSLQADDTAIYYCARNPLTATVMDYWGQGTSVTVSS VL: DIVMTQSQKFMSTSVGDRVSVTCKASQNVGTNVAWYQQKPGQSRTVLIYSASYRHSGVPDRFTGSGSGTDFTLTISNVQSEDLAEYFCQQYNSYPLTFGTGTKLELKR", "binding result": "binds"}
{"BINDER": "v20032 (antibody, human IgG1, kappa, L234A L235A, V domains shown, Mouse-human chimera; also called 4E6) VH: QVQLKESGPGLVAPSQSLSITCTVSGFSLTSYAINWVRQPPGKGLEWLGVLWPGGGTNYNSALKSRLSISKDNSKSQVFLKMNSLQTDDTARYYCARGSGTWYFDVWGAGTTVTVSS VL: DIQMTQTTSSLSASLGDRVTFSCSASQGISNYLNWYQQKPDGTVKLLIYYTSSLHLGVPSRFSGSGSGTDYSLTISNLEPEDIATYYCQQYSKLPWTFGGGTKLEIKR", "binding result": "binds"}
